Listed here: items and their measured gcPBM binding intensity (ln).
System: PfAP2-I AP2 domain 3 (GST-tagged)
assay notes: gcPBM binding intensity (ln(normalized median fluorescence intensity)); higher = stronger DNA binding
Over roughly 25,000 sequences, “ln(normalized median fluorescence intensity)” has its median near 7.9; the highest 2% begin near 11. Only a selection was taken, and the highest values are over-represented in it overall.

[
  {
    "ordered residues": "AAAATAAATAAATATACACACCATATATATATTTTT [CACACA_site5573]",
    "gcPBM binding intensity (ln)": 7.61
  },
  {
    "ordered residues": "ATTTTTTTTTTTTTTTTTTTTGCACCATAAAATAAT [CACACA_negctrl_site1324]",
    "gcPBM binding intensity (ln)": 11.2
  },
  {
    "ordered residues": "TAAAAATATTTTCATTGTACATATATATAAATATAT [XGTACX_site1123]",
    "gcPBM binding intensity (ln)": 7.59
  },
  {
    "ordered residues": "ATTGTTATTTATTGTGTGCGCATTAATACATACATA [GTGCAC_site9982]",
    "gcPBM binding intensity (ln)": 8.95
  },
  {
    "ordered residues": "AAAAAATTTTGAAATTGTACATATATAAAAAATATA [XGTACX_site2629]",
    "gcPBM binding intensity (ln)": 7.59
  },
  {
    "ordered residues": "CTAAATTATAGATCAGTGCAATTTAATATGAGTCCA",
    "gcPBM binding intensity (ln)": 8.91
  },
  {
    "ordered residues": "ATATATTGCACTTTTTGTACATAATGAAAAATTTTT [XGTACX_site8223]",
    "gcPBM binding intensity (ln)": 11.5
  },
  {
    "ordered residues": "AACATGTTAAAATAAACACACAGCTAAGGTTTTTTT [CACACA_site157]",
    "gcPBM binding intensity (ln)": 7.4
  },
  {
    "ordered residues": "AATATATTTTTTTTTTGTACATATTGTAAAATAATA [XGTACX_site6805]",
    "gcPBM binding intensity (ln)": 7.83
  }
]

* * *

Tested on: PfAP2-I AP2 domain 3 (GST-tagged)
assay notes: gcPBM binding intensity (ln(normalized median fluorescence intensity)); higher = stronger DNA binding
Whole data set: some 25,000 sequences, median “ln(normalized median fluorescence intensity)” near 7.9, cut for the highest 2% near 11. For the sample, the highest values were picked, then their nearest neighbours and some sequences at random.

[
  {
    "ordered residues": "AATATAAACACAAACACACACATATATATATATATA [CACACA_site4307]",
    "gcPBM binding intensity (ln)": 9.49
  },
  {
    "ordered residues": "ATATTTTATTTTAATACACACAAGTTATATAACCAC [CACACA_site6508]",
    "gcPBM binding intensity (ln)": 8.19
  },
  {
    "ordered residues": "AAAATATATACACAAACATGCATATAATAAATAAAT [TGCATGCA_site711]",
    "gcPBM binding intensity (ln)": 7.98
  },
  {
    "ordered residues": "TTATATATTTTTACCATACACACATATAATAAATAT [CACACA_site3721]",
    "gcPBM binding intensity (ln)": 8.04
  },
  {
    "ordered residues": "ATGTAGATATATATATGTACTAATTAGTAGTTTACG [XGTACX_site6275]",
    "gcPBM binding intensity (ln)": 8
  }
]
